- measured-target: CD74 (human), P04233
- Sequence (P04233 whole entry): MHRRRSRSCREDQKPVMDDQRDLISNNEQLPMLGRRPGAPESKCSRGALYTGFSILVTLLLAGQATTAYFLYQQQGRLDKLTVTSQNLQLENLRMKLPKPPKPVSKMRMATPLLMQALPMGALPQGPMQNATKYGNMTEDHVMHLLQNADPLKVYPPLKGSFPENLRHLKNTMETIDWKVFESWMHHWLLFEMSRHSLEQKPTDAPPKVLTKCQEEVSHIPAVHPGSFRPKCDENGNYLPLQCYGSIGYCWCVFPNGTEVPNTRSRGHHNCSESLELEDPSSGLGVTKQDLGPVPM
- protocol: cell-based or functional assay

>  <binder>
Conjugate A (anti-CD74 IgG-DBCO-PEG4-maytansine conjugate) (antibody, V domains shown, here or on the partner: para-azidomethyl-L-phenylalanine (pAMF, residue 30) at heavy chain EU position 404 (constant region, outside SEQ ID NO 236), linked to DBCO-PEG4-maytansine) VH: QVQLVESGGGVVQPGRSLRLSCAASGFNFSDYGMHWVRQAPGKGLEWVAVIWYDGSISYYADSVKGRFTISRDNSKNTLYLQMNSLRAEDTAVYYCARGGTVEHGAVYGTDVWGQGTTVTVSS VL: DIQMTQSPSSVSASVGDRVTITCRASQGIGSWLAWYQQKPGKAPKLLIYAADRLQSGVPSRFSGSGSGTDFTLTISSLQPEDFATYYCQQYHTYPLTFGGGTKVEIK

>  <cell killing Span, SUP-B15 (ALL) cells [%]>
65

$$$$
